Measured values drawn from paper PMC11189300 for this set.

B1: KNL1 residues 2,026–2,342 [human] / Mis12 complex (Mis12C), full length: MIS12, PMF1, NSL1, DSN1 [human] (parent complex)
chain 1: SAQNEREKLQIKIDEMDKILKKIDNCLTEMETETKNLEDEEKNNPVEEWDSEMRAAEKELEQLKTEEEELQRNLLELEVQKEQTLAQIDFMQKQRNRTEELLDQLSLSEWDVVEWSDDQAVFTFVYDTIQLTITFEESVVGFPFLDKRYRKIVDVNFQSLLDEDQAPPSSLLVHKLIFQYVEEKESWKKTCTTQHQLPKMLEEFSLVVHHCRLLGEEIEYLKRWGPNYNLMNIDINNNELRLLFSSSAAFAKFEITLFLSAYYPSVPLPSTIQNHVGNTSQDDIATILSKVPLENNYLKNVVKQIYQDLFQDCHFYH
chain 2: MSVDPMTYEAQFFGFTPQTCMLRIYIAFQDYLFEVMQAVEQVILKKLDGIPDCDISPVQIRKCTEKFLCFMKGHFDNLFSKMEQLFLQLILRIPSNILLPEDKCKETPYSEEDFQHLQKEIEQLQEKYKTELCTKQALLAELEEQKIVQAKLKQTLTFFDELHNVGRDHGTSDFRESLVSLVQNSRKLQNIRDNVEKESKRLKIS
chain 3: MAEASSANLGSGCEEKRHEGSSSESVPPGTTISRVKLLDTMVDTFLQKLVAAGSYQRFTDCYKCFYQLQPAMTQQIYDKFIAQLQTSIREEISDIKEEGNLEAVLNALDKIVEEGKVRKEPAWRPSGIPEKDLHSVMAPYFLQQRDTLRRHVQKQEAENQQLADAVLAGRRQVEELQLQVQAQQQAWQALHREQRELVAVLREPE
chain 4: MAGSPELVVLDPPWDKELAAGTESQALVSATPREDFRVRCTSKRAVTEMLQLCGRFVQKLGDALPEEIREPALRDAQWTFESAVQENISINGQAWQEASDNCFMDSDIKVLEDQFDEIIVDIATKRKQYPRKILECVIKTIKAKQEILKQYHPVVHPLDLKYDPDPAPHMENLKCRGETVAKEISEAMKSLPALIEQGEGFSQVLRMQPVIHLQRIHQEVFSSCHRKPDAKPENFITQIETTPTETASRKTSDMVLKRKQTKDCPQRKWYPLRPKKINLDT
chain 5: MTSVTRSEIIDEKGPVMSKTHDHQLESSLSPVEVFAKTSASLEMNQGVSEERIHLGSSPKKGGNCDLSHQERLQSKSLHLSPQEQSASYQDRRQSWRRASMKETNRRKSLHPIHQGITELSRSISVDLAESKRLGCLLLSSFQFSIQKLEPFLRDTKGFSLESFRAKASSLSEELKHFADGLETDGTLQKCFEDSNGKASDFSLEASVAEMKEYITKFSLERQTWDQLLLHYQQEAKEILSRGSTEAKITEVKVEPMTYLGSSQNEVLNTKPDYQKILQNQSKVFDCMELVMDELQGSVKQLQAFMDESTQCFQKVSVQLGKRSMQQLDPSPARKLLKLQLQNPPAIHGSGSGSCQ

Variants of: B1
METHOD_DESCRIPTION: ITC; syringe KNL1^M1; cell Mis12C^WT; parent: 1.56 nM
MEASURE_NAME: Kd (nM)

1) chain 1 M231A, chain 1 S247W, chain 1 F250A, chain 1 K252A; 140
